Value source: patent EP0519427A2

Average rating value, A₁ : Aspergillus Niger (IFO 6341) reference
- Test system: Aspergillus niger van Tieghem IFO 6341
- Test: Fungicide activity for wood fungicide (rating of fungi growth on treated wood)
- Type: cell-based
- Experimental Parameters: beech specimens dipped 3 min in fungicide solution, 4 weeks culture; rating 0 (no growth) to 3; mean of 6 specimens
- Experimental: This test was conducted according to Specification No.2 of Japan Wood Preserving Association, enacted in 1979 and titled "Test methods of fungicide activity for wood fungicide". […] 3-5-1 A Petri dish measured 90-100 mm in diameter and 20 mm in height. […] 3-7-2-1 Nutrients-supplied wood specimens were dried at 60 ± 2 °C, and then their weights (W₀) were measured. […] After finishing dipping, the test specimens were wiped softly, and then the weights (W₁) were measured immediately. […]
Metric: Average rating value, A₁ : Aspergillus Niger (IFO 6341)

In [3]: df
Out[3]:
                                    compound  reported_measurement
 0  CCCCCCNC(=O)C#CI [Example 8, N-(n-Hexyl)-3-iodopropiolamide]                   0.3
 1  CCC(C)NC(=O)C#CI (centres unmarked) [Example 5, N-(sec-Butyl)-3-iodopropiolamide]                   0.0
 2  CCCCNC(=O)OCC#CI [R, I-C≡CCH₂O-CO-NH(CH₂)₃CH₃, reference compound]                   0.0
 3  CCCCCCCCCNC(=O)C#CI [Example 11, N-(n-Nonyl)-3-iodopropiolamide]                   3.0
 4  CCCCCCCNC(=O)C#CI [Example 9, N-(n-Heptyl)-3-iodopropiolamide]                   1.7
 5  CCCCCCCCCCNC(=O)C#CI [Example 2, N-(n-Decyl)-3-iodopropiolamide]                   3.0
 6  CC(C)CNC(=O)C#CI [Example 6, N-Isobutyl-3-iodopropiolamide]                   0.0
 7  CCCCNC(=O)C#CI [Example 4, N-(n-Butyl)-3-iodopropiolamide]                   0.0
 8  CCCCCCCCNC(=O)C#CI [Example 10, N-(n-Octyl)-3-iodopropiolamide]                   2.7
 9  CCCCCNC(=O)C#CI [Example 7, N-(n-Pentyl)-3-iodopropiolamide]                   0.2
10  CC(C)(C)NC(=O)C#CI [Example 1, N-(tert-Butyl)-3-iodopropiolamide]                   0.0

* * *

- Tested on: Aspergillus niger IFO-4407
- Test: Antibacterial and antifungal activity, paper disc method
- Assay type: cell-based
- Experimental Parameters: IFO4407, paper disc d=8 mm dipped in 1,000 µg/ml solution, SDA medium, read-out: diameter of the growth inhibition circle, Asp.(IFO-4407)
Recorded zone of inhibition at 1000 µg/mL values for a group of compounds are listed next.
Metric: zone of inhibition at 1000 µg/mL

In [3]: df
Out[3]:
                                   compound  reported_measurement
0  CCCCCCCCCCNC(=O)C#CI [Example 2, N-(n-Decyl)-3-iodopropiolamide]            9 to 20 mm
1  CCCCCCCCNC(=O)C#CI [Example 10, N-(n-Octyl)-3-iodopropiolamide]            9 to 20 mm
2  O=C(C#CI)Nc1cccc(Cl)c1 [Example 3, N-(3-Chlorophenyl)-3-iodopropiolamide]           21 to 40 mm
3                  O=C(C#CI)Nc1ccc(Cl)cc1Cl           21 to 40 mm
4                         O=C(C#CI)N1CCCCC1           21 to 40 mm
5               O=C(C#CI)N1CCN(c2ccccc2)CC1           21 to 40 mm
6  CCCCCCCNC(=O)C#CI [Example 9, N-(n-Heptyl)-3-iodopropiolamide]           21 to 40 mm
7              O=C(C#CI)Nc1cccc(C(F)(F)F)c1           21 to 40 mm
8  CCCCCCCCCNC(=O)C#CI [Example 11, N-(n-Nonyl)-3-iodopropiolamide]            9 to 20 mm
